surface tension liquid-gas values, listed per item
Test: xn = mol fraction of the nth substance listed
Conditions: 308.15 K, x1 = 0.65
± gives the expanded uncertainty stated by the source.

Below, 5 compounds whose answers are already recorded.
> print(dat)
                                   compound           measured.quantity           result
1  CC(=O)OCCC(C)C [3-methylbutyl ethanoate] + CCO  surface tension liquid-gas  22.7 ± 0.4 mN/m
2     CCCCCC(=O)OCC [ethyl hexanoate] + CCO  surface tension liquid-gas  23.8 ± 0.6 mN/m
3  CCCC(=O)OCCC(C)C [3-methylbutyl butanoate] + CCO  surface tension liquid-gas  23.3 ± 0.6 mN/m
4   CCOC(=O)c1ccccc1 [ethyl benzoate] + CCO  surface tension liquid-gas  29.1 ± 0.6 mN/m
5   CCCCCCCC(=O)OCC [ethyl octanoate] + CCO  surface tension liquid-gas  24.8 ± 0.6 mN/m

// next entry
Data request: What does the data say about its surface tension liquid-gas? Entry: CCOC(=O)Cc1ccccc1 [ethyl phenylacetate] + CCO
Data returned: 29.2 ± 0.7 mN/m
